Assayed Target: human M4 receptor (Homo sapiens (Human), UniProt P08173)
Sequence (P08173 whole entry): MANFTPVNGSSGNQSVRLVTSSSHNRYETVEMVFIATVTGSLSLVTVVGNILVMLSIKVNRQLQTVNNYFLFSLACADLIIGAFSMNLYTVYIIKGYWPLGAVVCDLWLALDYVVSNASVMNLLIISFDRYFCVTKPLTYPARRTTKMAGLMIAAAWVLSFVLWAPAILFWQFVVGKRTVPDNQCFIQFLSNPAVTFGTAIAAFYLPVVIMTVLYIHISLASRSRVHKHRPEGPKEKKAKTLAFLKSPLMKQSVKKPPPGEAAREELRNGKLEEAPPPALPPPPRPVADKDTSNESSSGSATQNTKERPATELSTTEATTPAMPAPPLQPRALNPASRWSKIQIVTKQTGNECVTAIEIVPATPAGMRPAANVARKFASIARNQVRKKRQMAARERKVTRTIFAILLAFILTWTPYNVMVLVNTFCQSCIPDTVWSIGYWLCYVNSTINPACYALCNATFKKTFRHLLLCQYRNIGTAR
Protocol Notes: Radioligand (tritiated N-methylscopolamine) binding assay, M4
Run Parameters: Ki against the M4 receptor; membranes from CHO cells expressing human M4; tritiated N-methylscopolamine 1.5 nM; read-out: Ki
Readout Name: Ki

Would you please look over these solved cases?
[[record]]
compound = "C[C@@H]1CN(c2ncc(C(F)(F)F)cn2)C[C@H](C)N1C(=O)NCCC1CCN(Cc2ccccc2)CC1 [5-27]"
result = "< 10 nM"

[[record]]
compound = "C[C@@H]1CN(c2cnc(C(F)(F)F)cn2)C[C@@H](C)N1C(=O)NCCC1CCN(Cc2ccccc2)CC1 [26-4]"
result = "< 10 nM"

[[record]]
compound = "CN(CCC1CCN(Cc2ccccc2)CC1)C(=O)C1CCN(c2ccc(OC(F)(F)F)cc2)CC1 [9-34]"
result = "100 to 1000 nM"

[[record]]
compound = "C[C@@H]1CN(c2nc(F)c(F)c(F)n2)CCN1C(=O)NCCC1CCN(Cc2ccccc2)CC1 [5-6]"
result = "10 to 100 nM"

[[record]]
compound = "C[C@@H]1CN(c2ncc(C#N)cn2)C[C@H](C)N1C(=O)NCCC1CCN(CC2CCCCO2)CC1 (stereo partly drawn) [21-9]"
result = "100 to 1000 nM"


Qu. Consider the compound O=C(NCCC1CCN(Cc2cccc3c2OCCO3)CC1)c1ccc(Oc2ccccc2)cc1 [11-18] and give its measured Ki.
Ans. 100 to 1000 nM

Qu. Now consider O=C(C1CCN(c2ncc(C(F)(F)F)cc2Cl)CC1)N(CCC1CCN(Cc2ccccc2)CC1)C1CC1 [9-58] .
Ans. 100 to 1000 nM

Qu. Now consider C[C@@H]1CN(c2cc(F)cc(C#N)c2)CCN1C(=O)NC[C@H](O)C1CCN(Cc2ccccc2)CC1 [7-4] .
Ans. 10 to 100 nM

Qu. Now consider CNc1nc(N2C[C@@H](C)N(C(=O)NCCC3CCN(Cc4ccccc4)CC3)[C@@H](C)C2)ncc1C#N [5-21] .
Ans. 100 to 1000 nM

###

Assayed Target: human M4 receptor (Homo sapiens (Human))
Protocol Notes: Radioligand (tritiated N-methylscopolamine) binding assay, M4
Run Parameters: Ki against the M4 receptor; membranes from CHO cells expressing human M4; tritiated N-methylscopolamine 1.5 nM; read-out: Ki
pKi: −log10 of the molar value.
Readout Name: pKi

Would you please look over these solved cases?
[[record]]
structure = "O=C(NCCC1CCN(Cc2ccccc2)CC1)C1CCN(c2ccc(F)cn2)CC1"
result = "6.00 to 7.00"

[[record]]
structure = "C[C@@H]1CN(c2ccc(C#N)c(N(C)C)c2)CCN1C(=O)NCCC1CCN(Cc2ccccc2)CC1"
result = "7.00 to 8.00"

[[record]]
structure = "COc1ccnc(N2CCN(C(=O)NCCC3CCN(Cc4ccccc4)CC3)[C@H](C)C2)n1"
result = "6.00 to 7.00"


Qu. Consider the compound C[C@@H]1CN(C(=O)NCCC2CCN(Cc3ccccc3)CC2)CCN1c1ccc(OC(F)(F)F)c(F)c1 and give its measured pKi.
Ans. > 8.00

Qu. Now consider C[C@@H]1CN(c2ncc(C#N)c(N)n2)C[C@H](C)N1C(=O)NCCC1CCN(Cc2ccccc2)CC1 .
Ans. > 8.00

Qu. Now consider CC(=O)O[C@H](CNC(=O)N1CCN(c2ccc(F)c(C#N)c2)C[C@H]1C)C1CCN(Cc2ccccc2)CC1 .
Ans. 7.00 to 8.00

Qu. Now consider O=C(NCCC1(O)CCN(Cc2ccccc2)CC1)C1CCN(c2cccc(OC(F)(F)F)c2)CC1 .
Ans. 7.00 to 8.00

###

Assayed Target: human M4 receptor (Homo sapiens (Human), UniProt P08173)
Protocol Notes: Radioligand (tritiated N-methylscopolamine) binding assay, M4
Run Parameters: Ki against the M4 receptor; membranes from CHO cells expressing human M4; tritiated N-methylscopolamine 1.5 nM; read-out: Ki
Readout Name: Ki

Would you please look over these solved cases?
[[record]]
compound = "O=C(NCCC1CCN(Cc2ccccc2)CC1)C1CCN(c2ccc(F)c(OC(F)(F)F)c2)CC1 [10-11]"
result = "< 10 nM"

[[record]]
compound = "Cc1cc(C(=O)NC(C)C)nc(N2CCN(C(=O)NCCC3CCN(Cc4ccccc4)CC3)[C@H](C)C2)n1 [27-13]"
result = "100 to 1000 nM"

[[record]]
compound = "N#Cc1cc(F)cc(N2CCN(C(=O)NCCC3CCN(Cc4ccccc4)CC3)CC2)c1 [8-18]"
result = "10 to 100 nM"


Qu. Consider the compound C[C@@H]1CN(c2ccc(F)c(C(F)F)c2)CCN1C(=O)NCCC1CCN(Cc2ccccc2)CC1 [7-9] and give its measured Ki.
Ans. < 10 nM

Qu. Now consider C[C@@H]1CN(c2cnc(C(F)(F)F)nc2)C[C@H](C)N1C(=O)NCCC1CCN(Cc2ccccc2F)CC1 [6-52] .
Ans. 10 to 100 nM

Qu. Now consider O=C(NCC(O)C1CCN(CC2CCCCC2)CC1)C1CCN(c2ccc(OC(F)(F)F)cc2)CC1 (stereo not shown) [11-23] .
Ans. 100 to 1000 nM

Qu. Now consider O=C(C1CCN(c2ncc(C(F)(F)F)cc2Cl)CC1)N1CCN(C2CCN(Cc3ccccc3)CC2)CC1 [9-21] .
Ans. 10 to 100 nM

Qu. Now consider C[C@@H]1CN(c2ncc(C#N)cn2)C[C@H](C)N1C(=O)NCCC1CCN(Cc2ccc(C#N)cc2)CC1 [6-45] .
Ans. 100 to 1000 nM

###

Assayed Target: human M3 receptor (Homo sapiens (Human))
Sequence (P20309 whole entry): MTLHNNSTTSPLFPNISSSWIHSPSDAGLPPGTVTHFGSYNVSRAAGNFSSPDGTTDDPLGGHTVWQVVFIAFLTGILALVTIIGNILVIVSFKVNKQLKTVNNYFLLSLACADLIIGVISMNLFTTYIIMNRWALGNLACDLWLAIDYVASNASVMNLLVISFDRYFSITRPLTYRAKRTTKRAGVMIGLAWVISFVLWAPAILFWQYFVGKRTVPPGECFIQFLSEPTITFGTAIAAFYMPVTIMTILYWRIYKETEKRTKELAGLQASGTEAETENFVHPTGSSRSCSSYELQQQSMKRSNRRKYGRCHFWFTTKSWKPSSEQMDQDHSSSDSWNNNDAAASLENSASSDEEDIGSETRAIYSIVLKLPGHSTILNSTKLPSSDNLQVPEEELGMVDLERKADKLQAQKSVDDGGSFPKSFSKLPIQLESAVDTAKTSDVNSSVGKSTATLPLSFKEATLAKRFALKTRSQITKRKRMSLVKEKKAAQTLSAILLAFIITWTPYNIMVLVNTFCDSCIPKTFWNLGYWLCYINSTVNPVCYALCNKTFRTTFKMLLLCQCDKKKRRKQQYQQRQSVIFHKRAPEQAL
Readout Name: Ki

[[record]]
compound = "C[C@@H]1CN(c2nc(Cl)cc(C#N)n2)CCN1C(=O)NCCC1CCN(Cc2ccccc2)CC1"
result = "> 1000 nM"

[[record]]
compound = "C[C@@H]1CN(c2ccc(C#N)c(C(F)(F)F)c2)CCN1C(=O)NCCC1CCN(Cc2ccccc2)CC1"
result = "> 1000 nM"


Attention now turns to another entry.
Qu. Consider the compound C[C@@H]1CN(c2ncc(C(F)(F)F)c(N)n2)C[C@@H](C)N1C(=O)NCCC1CCN(Cc2ccccc2)CC1 and give its measured Ki.
Ans. > 1000 nM

###

Catalogue of compounds with associated pKi
Assayed Target: human M4 receptor (Homo sapiens (Human))
Protocol Notes: Radioligand (tritiated N-methylscopolamine) binding assay, M4
Run Parameters: Ki against the M4 receptor; membranes from CHO cells expressing human M4; tritiated N-methylscopolamine 1.5 nM; read-out: Ki
pKi: −log10 of the molar value.

Would you please look over these solved cases?
[[record]]
compound = "CCN(C)C(=O)c1cc(C)nc(N2CCN(C(=O)NCCC3CCN(Cc4ccccc4)CC3)[C@H](C)C2)n1 [27-18]"
result = "6.00 to 7.00"

[[record]]
compound = "Cc1cc(CN2CCC(CCNC(=O)N3[C@H](C)CN(c4ncc(C#N)cn4)C[C@@H]3C)CC2)ccc1O [6-57]"
result = "7.00 to 8.00"


Qu. GET /values?readout=pKi&system=human M4 receptor (Homo sapiens (Human))&item= O=C(NCC(O)C1CCN(Cc2ccccc2)CC1)C1CCN(c2ccc(OC(F)(F)F)cc2)CC1 (stereo not shown) [9-8]
Ans. > 8.00

Qu. Now consider Nc1nc(N2CCN(C(=O)NCCC3CCN(Cc4ccccc4)CC3)CC2)ncc1C(F)(F)F [5-30] .
Ans. > 8.00

Qu. Now consider C[C@@H]1CN(c2ncc(C(F)(F)F)cn2)CCN1C(=O)NCCC1CCN(Cc2ccccc2F)CC1 [6-38] .
Ans. 7.00 to 8.00

Qu. Now consider Cc1ccc(N2CCN(C(=O)NCCC3CCN(Cc4ccccc4)CC3)[C@H](C)C2)cc1F [4-13] .
Ans. > 8.00

###

Assayed Target: human M4 receptor (Homo sapiens (Human))
Protocol Notes: Radioligand (tritiated N-methylscopolamine) binding assay, M4
Run Parameters: Ki against the M4 receptor; membranes from CHO cells expressing human M4; tritiated N-methylscopolamine 1.5 nM; read-out: Ki
pKi: −log10 of the molar value.
Catalogue of compounds with associated pKi

Qu. GET /values?readout=pKi&system=human M4 receptor (Homo sapiens (Human))&item= O=C(NCCC1CCN(Cc2ccccc2)CC1)N1CCN(c2ncc(C(F)(F)F)cn2)CC1 [5-24]
Ans. > 8.00

Qu. Now consider O=C(OCCC1CCN(Cc2ccccc2)CC1)N1CCN(c2cccc(OC(F)(F)F)c2)CC1 [12-4] .
Ans. 7.00 to 8.00

Qu. Now consider O=C(NCCC1CCN(Cc2ccccc2)CC1)N1CCN(c2ccc(Cl)cc2)CC1 [8-13] .
Ans. 7.00 to 8.00

Qu. Now consider O=C(NCCC1CCN(Cc2ccccc2)CC1)C1CCN(c2nccc(C(F)(F)F)n2)CC1 [10-30] .
Ans. 7.00 to 8.00

Qu. Now consider Cc1ccccc1CN1CCC(CCNC(=O)N2CCN(c3ncc(C(F)(F)F)cn3)C[C@H]2C)CC1 [6-35] .
Ans. > 8.00

Qu. Now consider O=C(NCCC1CCN(Cc2ccccc2)CC1)C1CCN(c2ncc(Br)cn2)CC1 [9-37] .
Ans. 6.00 to 7.00

Qu. Now consider C[C@@H]1CN(c2cc(F)c(F)c(F)c2)CCN1C(=O)NCCC1CCN(Cc2ccc(O)cc2)CC1 [6-27] .
Ans. > 8.00

Qu. Now consider C[C@@H]1CN(c2cc(F)c(C#N)c(F)c2)C[C@H](C)N1C(=O)NCCC1CCN(Cc2ccccc2)CC1 [22-9] .
Ans. > 8.00

Qu. Now consider CNC(=O)c1cnc(N2CCN(C(=O)NCCC3CCN(Cc4ccccc4)CC3)[C@H](C)C2)nc1 [27-10] .
Ans. 6.00 to 7.00

Qu. Now consider C[C@@H]1CN(c2cc(F)c(F)c(F)c2)CCN1C(=O)NCCC1CCN(Cc2ccc(C#N)cc2)CC1 [6-2] .
Ans. 6.00 to 7.00

Qu. Now consider COc1ccc(-c2cc3ncc(C(=O)NCCC4CCN(Cc5ccccc5)CC4)c(C)n3n2)cc1 [9-51] .
Ans. 6.00 to 7.00

Qu. Now consider C[C@H]1CN(c2ccc(C(F)(F)F)cn2)CCC1C(=O)NCCC1CCN(Cc2ccccc2)CC1 (stereo partly drawn) [10-80] .
Ans. > 8.00

Recorded values, source patent US11033539B2.
